Taken from ChEMBL document CHEMBL4680151.

Tested on: MV4-11
Experiment: Antiproliferative activity against human MV4-11 cells harboring MLL1-AF4
Assay type: functional
Quantity Name: GI50 (µM)
Value expressed in µM; do not type the unit.

QUERY: Please look up its GI50: COCCCOc1ccnc(C[S+]([O-])c2nc3ccccc3[nH]2)c1C (stereo not given)
RESULT: 14.1

QUERY: Given Cc1c(OCC(F)(F)F)ccnc1C[S@@+]([O-])c1nc2ccccc2[nH]1 , state its recorded GI50.
RESULT: 25.1

QUERY: Need GI50, item COc1ccc2nc([S@@+]([O-])Cc3ncc(C)c(OC)c3C)[nH]c2c1
RESULT: 47.6

QUERY: Requested field: GI50. Item: COc1ccc2[nH]c([S+]([O-])Cc3ncc(C)c(OC)c3C)nc2c1 (stereo not given)
RESULT: 37.3

QUERY: Which GI50 reading was recorded for the compound Cc1c(OCC(F)(F)F)ccnc1C[S+]([O-])c1nc2ccccc2[nH]1 (stereo not given) ?
RESULT: 21.1

----------
Please go through the items and note down their IC50.
Biological target: Histone-lysine N-methyltransferase 2A/WDR5 (Homo sapiens, UniProt P61964)
Assay: Inhibition of MLL1-WDR5 interaction […] assessed as reduction in MLL1 binding to WDR5 WIN site by 5-FAM probe based fluorescence polarization assay
Entry rule: numbers only, all in µM.

QUERY: Recorded IC50 for COCCCOc1ccnc(C[S+]([O-])c2nc3cc(OC(F)F)ccc3[nH]2)c1C (stereo not drawn) , please?
RESULT: 1.7

QUERY: IC50 for COc1ccc2nc([S@@+]([O-])Cc3ncc(C)c(OC)c3C)[nH]c2c1 ?
RESULT: 1.8

QUERY: Param item = COc1c(C)cnc(C[S+]([O-])c2nc3ccccc3[nH]2)c1C (stereo not drawn) ; retrieve measured IC50.
RESULT: 1.1

QUERY: # lookup: IC50 of COc1ccc2[nH]c([S+]([O-])Cc3ncc(C)c(OC)c3C)nc2c1 (stereo not drawn)
RESULT: 1.7

QUERY: Would you kindly share the measured IC50 for COCCCOc1ccnc(C[S+]([O-])c2nc3ccccc3[nH]2)c1C (stereo not drawn) ?
RESULT: 0.49

QUERY: Could you share which IC50 value was measured for Cc1c(OCC(F)(F)F)ccnc1C[S+]([O-])c1nc2ccccc2[nH]1 (stereo not drawn) ?
RESULT: 5.9

QUERY: Would you mind telling me what IC50 value was observed for Cc1c(OCC(F)(F)F)ccnc1C[S@@+]([O-])c1nc2ccccc2[nH]1 ?
RESULT: 5.7

----------
Assay: Cytotoxicity against HUVEC cells
Type: cell-based
Conditions: human
Quantity Name: GI50

QUERY: Item Cc1c(OCC(F)(F)F)ccnc1C[S@@+]([O-])c1nc2ccccc2[nH]1 [DEXLANSOPRAZOLE] has what recorded GI50?
RESULT: > 100 µM

QUERY: If you can, please state the reported GI50 value of COc1ccc2nc([S@@+]([O-])Cc3ncc(C)c(OC)c3C)[nH]c2c1 [ESOMEPRAZOLE] .
RESULT: > 100 µM

QUERY: Name the recorded GI50 for Cc1c(OCC(F)(F)F)ccnc1C[S+]([O-])c1nc2ccccc2[nH]1 (stereo not given) [LANSOPRAZOLE] .
RESULT: > 100 µM

QUERY: Field request: GI50 | item: COc1ccc2[nH]c([S+]([O-])Cc3ncc(C)c(OC)c3C)nc2c1 (stereo not given) [OMEPRAZOLE]
RESULT: > 100 µM

QUERY: // query GI50 value for entry COCCCOc1ccnc(C[S+]([O-])c2nc3ccccc3[nH]2)c1C (stereo not given) [RABEPRAZOLE]
RESULT: > 100 µM

----------
Test system: MOLM-13
Experiment: Antiproliferative activity against human MOLM-13 cells harboring MLL1-AF9
Format: functional
The label is Y for GI50 below 30 µM and N for GI50 equal to or exceeding 30 µM.

QUERY: Is it true that GI50 reported for Cc1c(OCC(F)(F)F)ccnc1C[S@@+]([O-])c1nc2ccccc2[nH]1 is less than 30 µM?
RESULT: Y

QUERY: Quick check: does COCCCOc1ccnc(C[S+]([O-])c2nc3ccccc3[nH]2)c1C (stereo not given) have GI50 under 30 µM?
RESULT: Y

QUERY: Take the compound COc1ccc2nc([S@@+]([O-])Cc3ncc(C)c(OC)c3C)[nH]c2c1 and say whether its GI50 is less than 30 µM.
RESULT: N

QUERY: Dear colleague, could you confirm whether GI50 of COc1ccc2[nH]c([S+]([O-])Cc3ncc(C)c(OC)c3C)nc2c1 (stereo not given) falls below 30 µM? Thanks.
RESULT: N
